Entry source: ChEMBL document CHEMBL2216752

experimental details: Half life in NIDD patient at 150 to 450 mg/day, po for 15 days
Type: ADME, organism-based
experimental setup: human, in vivo
measure name: half-life (h)

> print(dat)
                           structure.string  data.value
1  CCCCCCCCCCCCCCNC(=O)N[C@H](CC(=O)[O-])C[N+](C)(C)C          25

----------
experimental details: Inhibition of carnitine palmitoyltransferase in 18 hr fasted rat liver homogenates
Assay type: tissue-based
measure name: IC50 (µM)

> print(dat)
                                   compound  measure.name  data.value
1  CCCCCCCCCCCCCCOP(=O)([O-])O[C@H](CC(=O)O)C[N+](C)(C)C          IC50          36
2  CCCCCCCCCCCCCCCC(=O)N[C@H](CC(=O)[O-])C[N+](C)(C)C [PALMITOYLAMINOCARNITINE]          IC50         1.3

----------
Reported pIC50 values for a set of compounds
experimental details: Inhibition of carnitine palmitoyltransferase in rat liver mitochondria assessed as conversion of [14C]palmitic acid to [14C]palmitoylcarnitine by radiometric assay
pIC50: −log10 of the molar value.
measure name: pIC50

> print(dat)
                           structure.string  data.value
1  CCCCCCOc1cccc(OCCCCNC(=O)N[C@H](CC(=O)[O-])C[N+](C)(C)C)c1        6.89
2  CCCCCCCCCCCCCCOP(=O)([O-])O[C@H](CC(=O)O)C[N+](C)(C)C        4.76
3  CCCCCCCCCCCCCCNC(=O)N[C@H](CC(=O)[O-])C[N+](C)(C)C        5.96
4  CCCCCCCCCCCCS(=O)(=O)N[C@H](CC(=O)[O-])C[N+](C)(C)C        6.15
5  CCCCCCCCCCCNS(=O)(=O)N[C@H](CC(=O)[O-])C[N+](C)(C)C        6.10
6  CCCCCCOc1cccc(OCCCCNC(=O)N[C@H](CC(=O)[O-])C[P+](C)(C)C)c1        6.92

----------
target under test: Carnitine O-palmitoyltransferase 2, mitochondrial (Rattus norvegicus, UniProt P18886)
Sequence (P18886 whole entry): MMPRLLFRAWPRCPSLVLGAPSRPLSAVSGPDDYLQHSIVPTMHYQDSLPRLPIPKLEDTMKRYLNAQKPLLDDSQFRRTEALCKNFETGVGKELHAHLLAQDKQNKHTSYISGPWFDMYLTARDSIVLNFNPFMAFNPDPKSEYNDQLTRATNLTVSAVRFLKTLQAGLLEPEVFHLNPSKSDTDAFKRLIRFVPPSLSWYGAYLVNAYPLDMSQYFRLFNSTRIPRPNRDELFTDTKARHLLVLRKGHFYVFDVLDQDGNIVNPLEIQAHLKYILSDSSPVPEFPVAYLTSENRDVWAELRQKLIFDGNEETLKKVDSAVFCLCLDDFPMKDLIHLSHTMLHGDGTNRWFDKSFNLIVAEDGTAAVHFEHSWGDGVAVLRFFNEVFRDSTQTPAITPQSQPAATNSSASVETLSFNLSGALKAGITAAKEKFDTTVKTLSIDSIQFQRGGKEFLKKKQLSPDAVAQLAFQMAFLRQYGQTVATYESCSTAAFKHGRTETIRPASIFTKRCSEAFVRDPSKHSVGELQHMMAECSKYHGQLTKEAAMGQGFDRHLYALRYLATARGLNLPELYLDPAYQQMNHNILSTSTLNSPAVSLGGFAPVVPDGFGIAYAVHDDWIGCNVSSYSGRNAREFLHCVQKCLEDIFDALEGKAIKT
experimental details: Inhibition of CPT2 in 24 hrs fasted rat liver mitochondria assessed as palmitoylcarnitine oxidation by radiometry
measure name: IC50 (nM)

> print(dat)
                 structure.string  measure.name  data.value
1  C[N+](C)(C)C[C@H](N)CC(=O)[O-]          IC50         800
